experimentalSystem: UniProtKB P25103
Sequence (P25103 whole entry): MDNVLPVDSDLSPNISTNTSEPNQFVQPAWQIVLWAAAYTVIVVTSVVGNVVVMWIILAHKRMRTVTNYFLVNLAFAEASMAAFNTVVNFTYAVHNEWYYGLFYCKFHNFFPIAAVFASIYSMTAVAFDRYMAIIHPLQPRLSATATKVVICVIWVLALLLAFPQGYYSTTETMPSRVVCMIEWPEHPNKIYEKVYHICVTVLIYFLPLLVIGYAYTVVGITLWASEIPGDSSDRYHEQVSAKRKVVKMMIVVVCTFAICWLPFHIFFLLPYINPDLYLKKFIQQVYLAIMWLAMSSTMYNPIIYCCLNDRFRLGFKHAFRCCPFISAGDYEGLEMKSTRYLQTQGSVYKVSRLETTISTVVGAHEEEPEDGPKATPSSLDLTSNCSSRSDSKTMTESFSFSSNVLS
experimentalProtocol: Signal transduction (ST), intracellular Ca++ (FLIPR), functional NK1 antagonistic activity
Format: cell-based
conditionsUsed: antagonist, read-out: NK1 pIC50 (converted)
Response field label takes Yes when IC50 is strictly below 100 nM and No in all other cases.

Worked cases, answers included:
O=C(c1ccc(=O)oc1)N1CCC2(CC1)CCN([C@H]1CCN(C(=O)c3cc(C(F)(F)F)cc(C(F)(F)F)c3)[C@H](Cc3ccccc3)C1)CC2 [Compound 46] :: No
O=C(C1CC1)N1CCCC2(CCCN([C@H]3CCN(C(=O)c4cc(C(F)(F)F)cc(C(F)(F)F)c4)[C@H](Cc4ccccc4)C3)C2)C1 (some centres unmarked) [Compound 208] :: No
O=C(c1ncccc1O)N1CCC2(CC1)CCN([C@H]1CCN(C(=O)c3cc(C(F)(F)F)cc(C(F)(F)F)c3)[C@H](Cc3ccccc3)C1)CC2 [Compound 53] :: No

Inquiry: hey, is IC50 for O=C(c1cc(C(F)(F)F)cc(C(F)(F)F)c1)N1CC[C@H](N2CCC3(CCN(C(=O)C4(c5ccccc5)CC4)CC3)CC2)C[C@H]1Cc1ccccc1 [Compound 89] lower than 100 nM or not?
Reply text: No

Inquiry: Quick check: IC50 of Cc1cccc(S(=O)(=O)N2CCC3(CCN([C@H]4CCN(C(=O)c5cc(C(F)(F)F)cc(C(F)(F)F)c5)[C@H](Cc5ccccc5)C4)CC3)CC2)c1 [Compound 104] under 100 nM?
Reply text: Yes

Inquiry: Does the reported IC50 of the following compound sit strictly below 100 nM? O=C(C=Cc1ccoc1)N1CCC2(CC1)CCN([C@H]1CCN(C(=O)c3cc(C(F)(F)F)cc(C(F)(F)F)c3)[C@H](Cc3ccccc3)C1)CC2 [Compound 85]
Reply text: No

Inquiry: Given O=C(c1ccoc1)N1CCC2(CC1)CCN([C@H]1CCN(C(=O)c3cc(C(F)(F)F)cc(C(F)(F)F)c3)[C@H](Cc3ccccc3)C1)CC2 [Compound 24] , is recorded IC50 strictly lower than 100 nM?
Reply text: No

Inquiry: Determine whether this compound shows IC50 lower than 100 nM (ties excluded): O=C(c1cc(C(F)(F)F)cc(C(F)(F)F)c1)N1CCC(N2CCC3(CC2)CCN(S(=O)(=O)c2cccs2)CC3)CC1Cc1ccccc1 (centres unmarked) [Compound 92]
Reply text: Yes

Inquiry: Lab log: compare recorded IC50 with 100 nM; is it strictly lower for O=C(c1cc(C(F)(F)F)cc(C(F)(F)F)c1)N1CCC(N2CCC3(CC2)CCN(C(CO)c2cccs2)CC3)CC1Cc1ccccc1 (centres unmarked) [Compound 6] ?
Reply text: No

Inquiry: Lab log: compare recorded IC50 with 100 nM; is it strictly lower for O=C(C1CCOC1)N1CCC2(CC1)CCN([C@H]1CCN(C(=O)c3cc(C(F)(F)F)cc(C(F)(F)F)c3)[C@H](Cc3ccc(Cl)c(Cl)c3)C1)CC2 (some centres unmarked) [Compound 132] ?
Reply text: Yes

Inquiry: Please indicate whether the reported IC50 of Cc1nc(S(=O)(=O)N2CCC3(CCN([C@H]4CCN(C(=O)c5cc(C(F)(F)F)cc(C(F)(F)F)c5)[C@H](Cc5ccccc5)C4)CC3)CC2)cn1C [Compound 100] is strictly below 100 nM.
Reply text: Yes

Inquiry: Does this compound meet the criterion IC50 < 100 nM? Cc1ccc(S(=O)(=O)N2CCC3(CCN([C@H]4CCN(C(=O)c5cc(C(F)(F)F)cc(C(F)(F)F)c5)[C@H](Cc5ccccc5)C4)CC3)CC2)cc1 [Compound 105]
Reply text: No

Inquiry: IC50 strictly < 100 nM for this compound? O=C1CC2(CCN1CC1CC1)CCN(C1CCN(C(=O)c3cc(C(F)(F)F)cc(C(F)(F)F)c3)C(Cc3ccccc3)C1)CC2 (centres unmarked) [Compound 195]
Reply text: Yes

Inquiry: Is 100 nM strictly greater than the compound's reported IC50? compound: O=C(C1CC1)N1CCC2(CC1)CCN(C1CCN(C(=O)c3cc(C(F)(F)F)cc(C(F)(F)F)c3)C(Cc3ccccc3)C1)CC2 (centres unmarked) [Compound 3]
Reply text: Yes

Inquiry: Please state whether IC50 is below 100 nM for CC(=O)Nc1ccc(S(=O)(=O)N2CCC3(CCN([C@H]4CCN(C(=O)c5cc(C(F)(F)F)cc(C(F)(F)F)c5)[C@H](Cc5ccccc5)C4)CC3)CC2)cc1 [Compound 124]
Reply text: Yes

Inquiry: IC50 strictly < 100 nM for this compound? N#Cc1ccccc1S(=O)(=O)N1CCC2(CCN([C@H]3CCN(C(=O)c4cc(C(F)(F)F)cc(C(F)(F)F)c4)[C@H](Cc4ccccc4)C3)CC2)CC1 [Compound 118]
Reply text: Yes
